assay: Stability of compound in human liver microsomes assessed as compound remaining at 1 uM preincubated for 5 mins followed by addition of NADPH generating system and incubated for 30 mins by LC/MS relative to control; format: ADME, Microsome; details: time 35 min, read-out: Stability
readout: remaining at 0.5 h, 1 µM (%)
The reply should be a number in %, with the unit left off.

Ask: Give the measured remaining at 0.5 h, 1 µM of CCNCCc1ccc(Cl)c(-c2ccccc2OC)c1.Cl .
Reply: 71.5

---

target: 5-hydroxytryptamine receptor 5A (Homo sapiens, UniProt P47898)
Sequence (P47898 whole entry): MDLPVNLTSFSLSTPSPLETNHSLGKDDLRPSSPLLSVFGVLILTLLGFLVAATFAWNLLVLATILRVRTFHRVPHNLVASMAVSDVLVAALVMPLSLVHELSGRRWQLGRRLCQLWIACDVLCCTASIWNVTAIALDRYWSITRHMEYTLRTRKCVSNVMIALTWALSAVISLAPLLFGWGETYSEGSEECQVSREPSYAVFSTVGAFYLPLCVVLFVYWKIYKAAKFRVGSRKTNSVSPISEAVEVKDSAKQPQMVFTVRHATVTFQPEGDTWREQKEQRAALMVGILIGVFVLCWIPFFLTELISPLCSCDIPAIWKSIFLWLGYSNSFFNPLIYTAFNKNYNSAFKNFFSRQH
Below is a list of entries, each paired with its recorded Ki value.
The reply should be a number in nM, with the unit left off.

{"columns": ["compound", "test.system", "readout", "unit.abbreviation", "result.number"],
 "data": [
  ["CCCNCCc1ccc(Cl)c(-c2ccccc2OC)c1.Cl", "5-hydroxytryptamine receptor 5A (Homo sapiens, UniProt P47898)", "Ki", "nM", 240],
  ["CNCCc1ccc(Cl)c(-c2ccccc2OC)c1", "5-hydroxytryptamine receptor 5A (Homo sapiens, UniProt P47898)", "Ki", "nM", 910],
  ["CCNCCc1ccc(Cl)c(-c2ccccc2OC)c1.Cl", "5-hydroxytryptamine receptor 5A (Homo sapiens, UniProt P47898)", "Ki", "nM", 700]
]}

Ask: For the record CCNCc1ccc(Cl)c(-c2ccccc2OC)c1 , what value of Ki is listed for 5-hydroxytryptamine receptor 5A (Homo sapiens, UniProt P47898)?
Reply: 1800

Ask: Try CCCCNCc1ccc(Cl)c(-c2ccccc2OC)c1 next.
Reply: 360

Ask: Try CCN(CC)CCc1ccc(Cl)c(-c2ccccc2OC)c1 next.
Reply: 2100

Ask: Try COc1ccccc1-c1cc(C2CCN(C)C2)ccc1Cl (stereo not given) next.
Reply: 1000

Ask: Try COc1ccccc1-c1cc(CCN(C)C)ccc1Cl next.
Reply: 380

Ask: Try CCCCNCCc1ccc(Cl)c(-c2ccccc2OC)c1.Cl next.
Reply: 2400

Ask: Try CCCN(CCC)CCc1ccc(Cl)c(-c2ccccc2OC)c1 next.
Reply: 2900
